Tested on: RBM10 RRM1-ZnF (GST-tagged construct);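 note: 20 pmol protein with 1.5 nmol RNA pool for 30 min at 4°C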
Assay: RNAcompete 7-mer binding Z-score; higher = stronger binding preference
The full ranking holds about 16,000 sequences; the median of “Z-score” is about -0.37, and the highest 2% start at about 3.2. What follows is part of a selection rich in the highest values, with near analogues and random picks from the rest.
Please go through the items and note down their RNAcompete 7-mer binding Z-score.
Give only the figure.

What measured RNAcompete 7-mer binding Z-score goes with AAUAGGG ?
3.28

Item under review: AGUGGUG . Reported RNAcompete 7-mer binding Z-score?
2.37

Which RNAcompete 7-mer binding Z-score value is on record for GGUGGUG ?
3.56

For the sequence shown here, AUGGAUA , give the reported RNAcompete 7-mer binding Z-score.
2.89

So what does the record say about RNAcompete 7-mer binding Z-score for CGACCUG ?
-0.571

Which RNAcompete 7-mer binding Z-score value is on record for GCGGGGU ?
3.75

Form field: reported RNAcompete 7-mer binding Z-score of CCUCGGG
0.423

Could you share which RNAcompete 7-mer binding Z-score value was measured for UAUCGAU ?
-0.513

What RNAcompete 7-mer binding Z-score value was documented for this sequence, CAACGAU ?
-0.409

What RNAcompete 7-mer binding Z-score value was documented for this sequence, GAGAGGG ?
2.7

I'd like to know its RNAcompete 7-mer binding Z-score. The sequence in question is UCUUGAA
-0.785

What value of RNAcompete 7-mer binding Z-score has been reported for the following sequence? AGUGUCC
-0.604

Quick one: RNAcompete 7-mer binding Z-score for GCGGGGC ?
2.47

Endpoint output: RNAcompete 7-mer binding Z-score of AUCGGGU . Value?
1.7

Any idea what RNAcompete 7-mer binding Z-score was measured for AUGGGCA ?
2.11

RNAcompete 7-mer binding Z-score lookup needed for AGGAGGG , thanks.
3.53

Can you look up the measured RNAcompete 7-mer binding Z-score of UUUUCUU for me?
-0.772

Name the reported RNAcompete 7-mer binding Z-score value associated with the sequence GCGGGUU
2.76

Which RNAcompete 7-mer binding Z-score is reported for this sequence? GUUACCG
-0.0999

Requested read-out: RNAcompete 7-mer binding Z-score. Entry: UAUAGGG
2.69

Entry AUGGAUU : reported RNAcompete 7-mer binding Z-score = ?
1.71

Return reported RNAcompete 7-mer binding Z-score; argument: AGGAGUG
2.91

Would you mind telling me what RNAcompete 7-mer binding Z-score value was observed for AAUAGGU ?
1.37

Name the recorded RNAcompete 7-mer binding Z-score for ACAGAAG .
0.595

Which RNAcompete 7-mer binding Z-score value is on record for GCAUUCU ?
-0.785

# input sequence: CGGAGGG ; wanted: its RNAcompete 7-mer binding Z-score
2.91

* * *

Please go through the items and note down their RNAcompete 7-mer binding Z-score.
Tested on: RBM10 RRM1-ZnF (GST-tagged construct);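 note: 20 pmol protein with 1.5 nmol RNA pool for 30 min at 4°C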
Assay: RNAcompete 7-mer binding Z-score; higher = stronger binding preference
Whole data set: some 16,000 sequences, median “Z-score” near -0.37, cut for the highest 2% near 3.2. Many of the other results were omitted from the sample, so the highest values are more common in it than they were.
// no unit, no text: just the number

Returns the measured RNAcompete 7-mer binding Z-score for the input sequence. Input: UUUGGGG
2.72

Any idea what RNAcompete 7-mer binding Z-score was measured for GUGGGGC ?
3.52

Look up RNAcompete 7-mer binding Z-score for this sequence: AUUGGGG
3.01

Record request: RNAcompete 7-mer binding Z-score value, item AGAAGCU
-0.48

Suppose we examine the sequence GUGUUUA ; what RNAcompete 7-mer binding Z-score value has been reported?
0.27

Requested field: RNAcompete 7-mer binding Z-score. Item: AGCAUGA
-0.119

Could you tell me which RNAcompete 7-mer binding Z-score is on file for CUUACAC ?
-0.841

What RNAcompete 7-mer binding Z-score value was documented for this sequence, AGAGGUG ?
2.04

Could you tell me which RNAcompete 7-mer binding Z-score is on file for AGAAGGU ?
3.26

Could you tell me which RNAcompete 7-mer binding Z-score is on file for CGUGCGG ?
1.09

Which value of RNAcompete 7-mer binding Z-score has been reported for GGGCAGC in the records?
1.32

# get_value(readout='RNAcompete 7-mer binding Z-score', item= UGGGCGC )
1.16

Can you look up the measured RNAcompete 7-mer binding Z-score of GUGGGAU for me?
3.68

Find the recorded RNAcompete 7-mer binding Z-score belonging to GUCGGAA and report it.
0.8

Quick one: RNAcompete 7-mer binding Z-score of UGUAGGG ?
3.6

Name the recorded RNAcompete 7-mer binding Z-score for GAAGACG .
1.09

So what's the measured RNAcompete 7-mer binding Z-score for this one? UGGGGUU
3.29

Query (sequence): AUGCAAG ; field requested: RNAcompete 7-mer binding Z-score
0.472

Which RNAcompete 7-mer binding Z-score reading was recorded for the sequence ACGUCAU ?
-0.513

I'd like to know its RNAcompete 7-mer binding Z-score. The sequence in question is AGCAAUC
-0.435

I have this sequence here, UGUGUGG , and I need its recorded RNAcompete 7-mer binding Z-score.
1.89

What value of RNAcompete 7-mer binding Z-score has been recorded for this entry: UGGUACG
1.43

Can you look up the measured RNAcompete 7-mer binding Z-score of ACACGGC for me?
-0.191

Give the measured RNAcompete 7-mer binding Z-score of GGGAAGA .
3.86

For the sequence shown here, GGAAGGC , give the reported RNAcompete 7-mer binding Z-score.
2.63

# lookup: RNAcompete 7-mer binding Z-score of GUGGGCC
1.46

Name the recorded RNAcompete 7-mer binding Z-score for GGAGGUU .
2.51

// query RNAcompete 7-mer binding Z-score value for entry AGAAGAG
1.64

What value of RNAcompete 7-mer binding Z-score has been recorded for this entry: CGGAAAA
0.654

RNAcompete 7-mer binding Z-score lookup needed for AGAAGAA , thanks.
1

What value of measured RNAcompete 7-mer binding Z-score is listed for UUACGCA ?
-0.584

So what's the measured RNAcompete 7-mer binding Z-score for this one? UGAGGUA
1.97

Entry UACAGGU has what RNAcompete 7-mer binding Z-score?
0.881

For AGCAUAA , what is its reported RNAcompete 7-mer binding Z-score?
-0.292

Could you tell me which RNAcompete 7-mer binding Z-score is on file for GGAGGGU ?
3.97

Item under review: GGAGGAU . Reported RNAcompete 7-mer binding Z-score?
2.46

Can you look up the measured RNAcompete 7-mer binding Z-score of CAUUCUU for me?
-0.789

// returns reported RNAcompete 7-mer binding Z-score for input AGCGGAA
2.07

# get_value(readout='RNAcompete 7-mer binding Z-score', item= AACGGAC )
0.413

What value of RNAcompete 7-mer binding Z-score has been recorded for this entry: GCGGGAA
2.66

State the recorded RNAcompete 7-mer binding Z-score for this entry: UGAAAAG
0.381

May I ask what RNAcompete 7-mer binding Z-score has been recorded for CUUGGGU ?
1.38

// returns reported RNAcompete 7-mer binding Z-score for input UUGCCGC
-0.662

Name the recorded RNAcompete 7-mer binding Z-score for GGGUGCA .
2.74

RNAcompete 7-mer binding Z-score for UUGGUGG ?
2.48

What measured RNAcompete 7-mer binding Z-score goes with CGGUGUG ?
1.72

Would you kindly share the measured RNAcompete 7-mer binding Z-score for UGUGCCA ?
-0.542

I have this sequence here, AGAAGGA , and I need its recorded RNAcompete 7-mer binding Z-score.
3.99

Requested read-out: RNAcompete 7-mer binding Z-score. Entry: UGGGGCU
2.3

What value of RNAcompete 7-mer binding Z-score has been reported for the following sequence? AGCGGAU
3.22

Return reported RNAcompete 7-mer binding Z-score; argument: UUGGGGU
3.27

So what does the record say about RNAcompete 7-mer binding Z-score for AUCACAU ?
-0.457

# RNAcompete 7-mer binding Z-score lookup, item UGGCUAG
0.391

Suppose we examine the sequence GGGCUCA ; what RNAcompete 7-mer binding Z-score value has been reported?
0.485

Sample GGAAGGU — what was its RNAcompete 7-mer binding Z-score?
4.23

So what does the record say about RNAcompete 7-mer binding Z-score for CGGAAGC ?
0.283

// RNAcompete 7-mer binding Z-score lookup, key: AGAAGGC
0.699

I would be grateful if you could share the reported RNAcompete 7-mer binding Z-score for UCACUUA .
-0.724

May I ask what RNAcompete 7-mer binding Z-score has been recorded for AUAGAAU ?
-0.132

Quick one: RNAcompete 7-mer binding Z-score for UUAUGAU ?
-0.353

Would you mind telling me what RNAcompete 7-mer binding Z-score value was observed for CGAGGUA ?
1.57

Give its RNAcompete 7-mer binding Z-score value. Item: CGGAAAG
1.84

What value of RNAcompete 7-mer binding Z-score has been recorded for this entry: AGGAAUA
0.881

Return reported RNAcompete 7-mer binding Z-score; argument: AUGGGAC
2.09

Looking for the measured RNAcompete 7-mer binding Z-score of AUGGGAU , can you help?
3.45

For UACGAGU , what is its reported RNAcompete 7-mer binding Z-score?
-0.155

For the sequence shown here, ACCGUUC , give the reported RNAcompete 7-mer binding Z-score.
-0.948

Fill in the blank: the reported RNAcompete 7-mer binding Z-score of GGAGGCU is ____.
1.41

Requested field: RNAcompete 7-mer binding Z-score. Item: ACUAGGG
2.03

GET /values?readout=RNAcompete 7-mer binding Z-score&item= UGGAAAG
2.84

Suppose we examine the sequence GGAAAAA ; what RNAcompete 7-mer binding Z-score value has been reported?
1.86

Which RNAcompete 7-mer binding Z-score value belongs to CUUACCC ?
-0.792

# lookup: RNAcompete 7-mer binding Z-score of UCAUUAA
-0.509

Reported RNAcompete 7-mer binding Z-score for CGCCUAA : what is it?
-0.694

RNAcompete 7-mer binding Z-score for GCGCCCC ?
-0.0934

Given the sequence GAAGUUA , what is its reported RNAcompete 7-mer binding Z-score?
0.309

Endpoint output: RNAcompete 7-mer binding Z-score of UGGGGGU . Value?
3.87

I would be grateful if you could share the reported RNAcompete 7-mer binding Z-score for CUGGGGC .
0.901

Return reported RNAcompete 7-mer binding Z-score; argument: CAAAACG
-0.119

Need RNAcompete 7-mer binding Z-score of UUACAAA , thanks.
-0.305

Which RNAcompete 7-mer binding Z-score reading was recorded for the sequence CUGGAGA ?
0.501

Which RNAcompete 7-mer binding Z-score is listed for AGAAGGG ?
3.86

Can you look up the measured RNAcompete 7-mer binding Z-score of UGGAUAU for me?
1.17

What value of measured RNAcompete 7-mer binding Z-score is listed for UUUUGAU ?
-0.629

I am curious: what RNAcompete 7-mer binding Z-score value has been reported for UUGGUGU ?
1.51

Give its RNAcompete 7-mer binding Z-score value. Item: UUUUUAA
-0.652
